# Test system: α-glucosidase
# Experiment Description: α-glucosidase enzyme inhibition assay (starch substrate, anthrone reagent, 640 nm)
# Type: biochemical
# Assay Conditions: 250 µg/mL, Table 5 (MCu series)
Observed Property: % Inhibition (%)
Give bare numbers, in %.

[[record]]
compound = "CN(C)C(=N)NC(=N)N=Cc1ccccc1O.CN(C)C(=N)NC(=N)N=Cc1ccccc1O.O.O.O.O.O.O=S(=O)([O-])[O-].[Cu+2] [MCu2]"
numeric_result = 31.13

[[record]]
compound = "CC(=NC(=N)NC(=N)N(C)C)c1ccccc1.CC(=NC(=N)NC(=N)N(C)C)c1ccccc1.O.O.O.O.O.O=S(=O)([O-])[O-].[Cu+2] [MCu6]"
numeric_result = 10.74

[[record]]
compound = "C[C@H]1O[C@H](O[C@H]2[C@H](O)[C@@H](O)[C@@H](O[C@H]3[C@H](O)[C@@H](O)C(O)O[C@@H]3CO)O[C@@H]2CO)[C@H](O)[C@@H](O)[C@@H]1N[C@H]1C=C(CO)[C@@H](O)[C@H](O)[C@H]1O (stereo partly shown) [Acarbose, reference compound]"
numeric_result = 42.65


Let's switch to this compound now.
Please report the recorded % Inhibition for CN(C)C(=N)NC(=N)N=C(c1ccccc1)c1ccccc1.CN(C)C(=N)NC(=N)N=C(c1ccccc1)c1ccccc1.O.O.O.O.O.O=S(=O)([O-])[O-].[Cu+2] [MCu7] .
29.47

* * *

# System: α-amylase
# Experiment Description: α-amylase enzyme inhibition assay (starch, dinitro-salicylic acid, 540 nm)
# Type: biochemical
# Assay Conditions: 250 µg/mL, Table 7 (Met series)
Observed Property: % Inhibition (%)
Give bare numbers, in %.

[[record]]
molecule = "CN(C)C(=N)N=C(N)N [Met, N,N-dimethyltriimidodicarbonic diamide, reference compound]"
experimental_target = "α-amylase"
units_text = "%"
numeric_result = 55.27

[[record]]
molecule = "CN(C)C(=N)NC(=N)N=C(c1ccccc1)C(O)c1ccccc1 (stereo not shown)"
experimental_target = "α-amylase"
units_text = "%"
numeric_result = 5.41

[[record]]
molecule = "CN(C)C(=N)NC(=N)N=C(c1ccccc1)c1ccccc1"
experimental_target = "α-amylase"
units_text = "%"
numeric_result = 24.25


I need % Inhibition for every entry listed below, if you could help.
1. C[C@H]1O[C@H](O[C@H]2[C@H](O)[C@@H](O)[C@@H](O[C@H]3[C@H](O)[C@@H](O)C(O)O[C@@H]3CO)O[C@@H]2CO)[C@H](O)[C@@H](O)[C@@H]1N[C@H]1C=C(CO)[C@@H](O)[C@H](O)[C@H]1O (stereo partly shown) [Acarbose, reference compound]
2. CC(C)=NC(=N)NC(=N)N(C)C
3. C/C(=N\C(=N)NC(=N)N(C)C)c1ccccc1

1. 49.65
2. 15.61
3. 18.48

What value of % Inhibition on α-amylase does C=NC(=N)NC(=N)N(C)C have?
15.48

* * *

So I've got a bunch of compounds here, and I need their % Inhibition values.
# Test system: α-glucosidase
# Experiment Description: α-glucosidase enzyme inhibition assay (starch substrate, anthrone reagent, 640 nm)
# Type: biochemical
# Assay Conditions: 1000 µg/mL, Table 5 (MCu series)
Numbers only, in %.

[[record]]
compound = "CN(C)C(=N)NC(=N)N=Cc1ccccc1O.CN(C)C(=N)NC(=N)N=Cc1ccccc1O.O.O.O.O.O.O=S(=O)([O-])[O-].[Cu+2]"
observed_property = "% Inhibition"
numeric_result = 77.32

[[record]]
compound = "CN(C)C(=N)NC(=N)N=Cc1ccccc1.CN(C)C(=N)NC(=N)N=Cc1ccccc1.O.O.O.O.O.O=S(=O)([O-])[O-].[Cu+2]"
observed_property = "% Inhibition"
numeric_result = 81.13


Let's switch to this compound now.
Please report the recorded % Inhibition for CN(C)C(=N)NC(=N)N=C(c1ccccc1)C(O)c1ccccc1.CN(C)C(=N)NC(=N)N=C(c1ccccc1)C(O)c1ccccc1.O.O.O.O.O.O=S(=O)([O-])[O-].[Cu+2] (stereo not drawn) .
49.49
